What follows is a collection of pEC50 values obtained with Peroxisome proliferator-activated receptor gamma (Homo sapiens, UniProt P37231).
Sequence (P37231 whole entry): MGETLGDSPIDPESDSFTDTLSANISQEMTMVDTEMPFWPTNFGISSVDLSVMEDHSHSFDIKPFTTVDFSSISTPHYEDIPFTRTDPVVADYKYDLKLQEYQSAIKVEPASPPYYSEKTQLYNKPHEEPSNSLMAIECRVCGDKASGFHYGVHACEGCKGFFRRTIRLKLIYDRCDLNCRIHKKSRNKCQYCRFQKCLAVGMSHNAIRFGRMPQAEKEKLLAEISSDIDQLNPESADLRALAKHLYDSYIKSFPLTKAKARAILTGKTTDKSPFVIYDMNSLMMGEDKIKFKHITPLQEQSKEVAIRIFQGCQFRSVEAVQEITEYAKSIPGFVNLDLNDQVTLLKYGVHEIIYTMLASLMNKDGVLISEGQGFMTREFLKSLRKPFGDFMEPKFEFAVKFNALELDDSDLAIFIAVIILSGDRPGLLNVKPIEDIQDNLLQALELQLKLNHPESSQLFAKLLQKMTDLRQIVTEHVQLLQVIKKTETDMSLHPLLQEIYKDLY
pEC50: −log10 of the molar value.

| Compound smiles | pEC50 |
| --- | --- |
| CCC[C@@H](OCc1ccc(-c2ccc(Cl)cc2)cc1)C(=O)O | 5.27 |
| CCc1ccc(O[C@@H](Cc2ccccc2)C(=O)O)cc1 | 5.44 |
| CCC[C@H](OCc1ccc(-c2ccc(Cl)cc2)cc1)C(=O)O | 5.05 |
| O=C(O)[C@H](Cc1ccccc1)Oc1ccc2ccccc2c1 | 5.82 |
| COc1ccc(O[C@@H](Cc2ccccc2)C(=O)O)cc1 | 4.70 |
| CC(C)(Oc1ccc(Cl)cc1)C(=O)O | 3.51 |
